Test system: NCI-H23 lung
protocol details: NCI-60 one-dose screen, 48 h (100 = growth as untreated, 0 = no growth, -100 = all killed)
experimental setup: 10 µM unless noted
About 83,000 compounds went through this panel and 20% of them were active in at least one assay; those are over-represented in the sample as a whole. Calls of active or inactive are those of the source. The calls were made as follows: active = growth percent below 10; inactive = the rest.
parameter measured: growth

In [3]: df
Out[3]:
                                    molecule           endpoint_value
 0  O=C(/C=C/c1ccccc1)c1cccc(OCCCOc2cccc(C(=O)/C=C/c3ccccc3)c2)c1         95.5% (inactive)
 1  CCOC(=O)CNP(=O)(OC[C@@H](Cc1ccccc1)NC(=O)c1cc2ccccc2s1)Oc1ccccc1 (some centres not stated)         81.1% (inactive)
 2  COc1ccc(/C=C2\COc3ccc(O)cc3C2=O)c(OC)c1OC         89.5% (inactive)
 3  O=S(=O)(NCCCNc1nccc(-c2c(-c3ccc(F)c(O)c3)nc3occn23)n1)c1ccccc1         84.1% (inactive)
 4  O=C(c1ccc(-c2nc(CSc3nc4ccccc4s3)no2)cc1)N1CCSCC1         52.9% (inactive)
 5  CCOC(=O)c1c(C)nc2c(c1N)CC(=O)N2Cc1cc(F)cc(Cl)c1         81.8% (inactive)
 6  CCO/C=N/C1=C(C#N)C(c2ccc(OC)cc2)c2sc3c(F)cccc3c2O1 (configuration not stated)         48.9% (inactive)
 7  O=C1/C(=C/c2ccc(Cl)cc2)COc2ccc(O)c(O)c21         42.3% (inactive)
 8  CN1CCN(C(=O)c2ccc(NC(=O)Nc3ccc(-c4nc(N5CCOCC5)c5cccn5n4)cc3)cc2)CC1         15.4% (inactive)
 9  CN(C)CCCC1(c2ccc(F)cc2)OCc2cc(-c3cncc4ccccc34)ccc21 (configuration not stated)         77.6% (inactive)
10  CCN(CC)CCOc1ccc(C(=C(C)c2ccc(Cl)cc2)c2ccc(OCCN(CC)CC)cc2)cc1           3.75% (active)
11  COc1ccc2c3c([nH]c2c1)C(=O)c1nc(C)ccc1C3=O           3.17% (active)
12  CC(=O)OC[C@]12CCC(C)(C)C[C@H]1[C@@]1(O)[C@H](O)C[C@@H]3[C@@]4(C)CCCNC(C)(C)[C@@H]4CC[C@@]3(C)[C@]1(C)CC2          106% (inactive)
13       O=C1Nc2ccccc2[C@]12CC(c1ccccc1)=NN2         64.3% (inactive)
14  COc1ccc(C2=Nc3c/c(=C\c4c(O)[nH]c5ccc(Cl)cc45)ccc3=N2)cc1         52.1% (inactive)
15               CC(=O)OCc1nc(C#N)c(N(C)C)o1          102% (inactive)
16  CN1CCN(c2ccc(NC(=O)c3nc4ccc5[nH]ncc5c4c4c3CCCC4)cc2C(F)(F)F)CC1         90.2% (inactive)
17  C=C1C(=O)O[C@H]2[C@H]1CC/C(COC(=O)NCc1ccc(Cn3c(=O)sn(CCI)c3=O)cc1)=C\CC[C@@]1(C)O[C@@H]21         88.5% (inactive)
18  CCCCN[C@H]1CC[C@@]2(C)[C@@H](CC[C@@]3(C)[C@H]2[C@H](O)C[C@H]2/C(=C(\CCC=C(C)C)C(=O)OC)[C@@H](OC(C)=O)C[C@@]23C)[C@@H]1C         90.5% (inactive)
19     O=C1/C(=C/c2cccs2)SC(=S)N1CCCN1CCOCC1         96.7% (inactive)
20  N#C/C(=C\c1ccc(-c2ccc(Cl)cc2)o1)C(=O)Nc1ncc(Cc2ccc(Cl)cc2)s1         31.8% (inactive)
21  CCN1CCN(c2cc(C(=O)Nc3nc(-c4cc(OC)c(OC)c(OC)c4)cs3)cc(C(F)(F)F)c2)CC1         79.4% (inactive)
22  O=C(Nc1ncc(Cc2ccc(Cl)c(C(F)(F)F)c2)s1)c1ccc2nnsc2c1         37.4% (inactive)
23  Cc1cc(N)c2cc(NC(=O)/C=C\c3ccccc3Cl)ccc2n1          -85.4% (active)
24                     COC(=O)CCC(=O)C(=O)OC  0.491% [10 mM] (active)
25  CN1C(=O)N(C)C2Nn3c(s/c(=C\c4ccc(C(F)(F)F)cc4)c3=O)=NC21 (configuration not stated)         99.4% (inactive)
26  CC/C(=C(/c1ccc(Cl)cc1)c1ccc(OCCN2CCCC2)cc1)c1ccc(OC)cc1         52.9% (inactive)
27  COc1ccc(/C=N/C2=C(C#N)C(c3cccc(Cl)c3)c3c(ccc4ccccc34)O2)cc1 (configuration not stated)         53.5% (inactive)
28  O=C(c1ccc(Cl)cc1)N1CCN(c2ccnc3cc(Cl)ccc23)CC1         98.4% (inactive)
29  CN1CCN(c2ccc(NC(=O)c3cncnc3Nc3ccc(OCc4ccccn4)c(Cl)c3)cc2)CC1         70.1% (inactive)
30  Cc1ccc(Sc2nnc(/N=C3\C(=O)Nc4ccccc43)s2)cc1          107% (inactive)
31  COC(=O)c1cc(-c2ccc(S(C)(=O)=O)cc2)[nH]c1N/N=C/c1c(Cl)cccc1Cl         29.6% (inactive)
32  C#CCOc1ccc2ncnc(Nc3cccc(NC(=O)C=C)c3)c2c1         80.7% (inactive)
33  Oc1ccc(CCn2c(O)c(/C=C3\CN=c4ccccc4=N3)sc2=S)cc1         59.1% (inactive)
34  CC1(C)CC[C@]2(C(=O)O)CC[C@]3(C)C(=CC[C@@H]4[C@@]5(C)C/C(=C/O)C(=O)C(C)(C)[C@@H]5CC[C@]43C)[C@@H]2C1         22.2% (inactive)
35  CC(=O)Nc1nc2ccc(NS(=O)(=O)c3cccc4c(N(C)C)cccc34)cc2[nH]1         70.5% (inactive)
36  C[C@H](NC(=O)[C@@H](C)N)[C@H](Oc1ccc2c(cnn2-c2ccc(F)cc2)c1)c1ccc2c(c1)OCCO2         83.7% (inactive)
